Cited source for all entries: ChEMBL document CHEMBL5247592

# TARGET_UNDER_TEST: von Hippel-Lindau disease tumor suppressor/Vascular endothelial growth factor receptor 2 (Homo sapiens, UniProt P35968+P40337)
# Sequence (P35968 20-1356 limits assumed): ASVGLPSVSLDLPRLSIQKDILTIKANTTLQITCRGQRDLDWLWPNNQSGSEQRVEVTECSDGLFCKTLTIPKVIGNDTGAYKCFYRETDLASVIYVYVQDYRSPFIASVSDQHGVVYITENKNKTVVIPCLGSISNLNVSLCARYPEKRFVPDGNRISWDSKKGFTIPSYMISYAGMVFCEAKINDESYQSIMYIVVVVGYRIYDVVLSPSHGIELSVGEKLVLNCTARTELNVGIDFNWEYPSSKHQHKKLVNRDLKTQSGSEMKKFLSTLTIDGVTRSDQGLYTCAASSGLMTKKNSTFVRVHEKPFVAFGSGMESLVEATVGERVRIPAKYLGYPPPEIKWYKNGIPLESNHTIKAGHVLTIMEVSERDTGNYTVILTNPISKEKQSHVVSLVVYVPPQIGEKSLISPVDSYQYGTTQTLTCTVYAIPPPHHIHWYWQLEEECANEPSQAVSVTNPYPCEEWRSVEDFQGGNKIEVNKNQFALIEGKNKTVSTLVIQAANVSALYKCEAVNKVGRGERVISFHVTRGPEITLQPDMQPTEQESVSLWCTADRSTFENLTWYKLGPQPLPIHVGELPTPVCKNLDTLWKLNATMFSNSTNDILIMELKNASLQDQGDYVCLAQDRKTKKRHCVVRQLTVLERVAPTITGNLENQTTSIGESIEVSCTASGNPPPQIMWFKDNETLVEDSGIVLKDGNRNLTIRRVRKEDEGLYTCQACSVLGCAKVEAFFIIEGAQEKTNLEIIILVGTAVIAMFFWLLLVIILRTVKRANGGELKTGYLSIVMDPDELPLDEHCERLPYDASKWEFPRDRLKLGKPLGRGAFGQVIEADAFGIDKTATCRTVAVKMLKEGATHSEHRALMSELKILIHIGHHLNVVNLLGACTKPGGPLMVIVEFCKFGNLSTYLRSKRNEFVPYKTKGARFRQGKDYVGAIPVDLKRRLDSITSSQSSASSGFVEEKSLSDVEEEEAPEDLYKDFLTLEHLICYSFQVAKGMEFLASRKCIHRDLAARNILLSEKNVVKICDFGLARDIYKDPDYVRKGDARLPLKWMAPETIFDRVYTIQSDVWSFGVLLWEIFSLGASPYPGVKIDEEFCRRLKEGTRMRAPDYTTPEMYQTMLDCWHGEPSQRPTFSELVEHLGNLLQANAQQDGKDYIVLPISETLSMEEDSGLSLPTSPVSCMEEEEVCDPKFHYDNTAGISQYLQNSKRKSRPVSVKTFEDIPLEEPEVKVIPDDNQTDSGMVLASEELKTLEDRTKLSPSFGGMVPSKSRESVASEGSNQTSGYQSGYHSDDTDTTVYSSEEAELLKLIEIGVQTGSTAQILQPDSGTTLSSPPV
# Sequence (P40337 whole entry partner): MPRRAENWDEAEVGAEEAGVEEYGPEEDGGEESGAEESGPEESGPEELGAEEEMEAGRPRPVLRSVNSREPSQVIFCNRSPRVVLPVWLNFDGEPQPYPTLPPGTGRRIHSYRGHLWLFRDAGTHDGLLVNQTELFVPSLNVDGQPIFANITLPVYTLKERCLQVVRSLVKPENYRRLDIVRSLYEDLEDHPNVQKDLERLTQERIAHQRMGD
# MEASUREMENT_PROTOCOL: PROTAC activity at VHL/VEGFR2 in human HGC-27 cells assessed as reduction in VEGFR2 protein level by measuring maximal efficacy incubated for 24 hrs by Western blot analysis relative to control
# Format: cell-based
Known Emax of a selection of compounds
Give your result in % as a bare value.

// returns reported Emax for input `Cc1ccc(NC(=O)Cn2cc(-c3ccc4c(NC(=O)c5ccc(N6CCN(CCCCCCC(=O)N[C@H](C(=O)N7C[C@H](O)C[C@H]7C(=O)NCc7ccc(-c8scnc8C)cc7)C(C)(C)C)CC6)cc5)n[nH]c4c3)cn2)cc1C(F)(F)F`
38.2

Try this compound next: `Cc1ccc(NC(=O)Cn2cc(-c3ccc4c(NC(=O)c5ccc(N)cc5)nn(C(=O)CCCCCCCCCCC(=O)N[C@H](C(=O)N5C[C@H](O)C[C@H]5C(=O)NCc5ccc(-c6scnc6C)cc5)C(C)(C)C)c4c3)cn2)cc1C(F)(F)F`
81.7

Subsequent entry: `Cc1ccc(NC(=O)Cn2cc(-c3ccc4c(NC(=O)c5ccc(N6CCN(CCCCC(=O)N[C@H](C(=O)N7C[C@H](O)C[C@H]7C(=O)NCc7ccc(-c8scnc8C)cc7)C(C)(C)C)CC6)cc5)n[nH]c4c3)cn2)cc1C(F)(F)F`
8.7
